In this section we review reported Changes of blood pressure after drug withdrawal values for a set of molecules.
- System: renal hypertensive rats
- measurementProtocol: Antihypertensive activity in rats, p.o. (Table 4)
- Format: in vivo, rat
- appliedConditions: 100 mg/kg/day p.o.; 1st day after withdrawal
readoutType: Changes of blood pressure after drug withdrawal (mmHg)

{"columns": ["molecule", "systemTested", "assayResult"],
 "data": [
  ["NCCOP(=O)(O)OCCNC(=O)COc1ccc(Oc2ccc(Cl)cc2)cc1", "renal hypertensive rats", -49],
  ["NCCOP(=O)(O)OCCCNC(=O)COc1ccc(Oc2ccc(Cl)cc2)cc1", "renal hypertensive rats", -19],
  ["CC(Oc1ccc(Oc2ccc(Cl)cc2)cc1)C(=O)NCCCOP(=O)(O)OCCN (stereo not shown)", "renal hypertensive rats", -22],
  ["CC(Oc1ccc(Oc2ccc(Cl)cc2)cc1)C(=O)NCCOP(=O)(O)OCCN (stereo not shown)", "renal hypertensive rats", -37]
]}

----------
In this section we review reported Changes of blood pressure values for a set of molecules.
- Test system: renal hypertensive rats
- measurementProtocol: Antihypertensive activity in rats, p.o. (Table 4)
- Format: in vivo, rat
- appliedConditions: 100 mg/kg/day p.o.; 3rd day, 0 h (immediately before administration)
- Method: An aqueous solution or suspension in peanut oil of each test compound as administered intramuscularly (i.m.) or orally (p.o.) at a dose of 30 to 100 mg/kg (body weight)/day once every morning over the period of 6 to 7 days. The blood pressure of each rat was measured daily before and 5 hours after each administration. Furthermore, the blood pressure was measured every morning after drug withdrawal over a period of 3 to 6 days. […]

{"columns": ["molecule", "Changes of blood pressure / mmHg"],
 "data": [
  ["CC(Oc1ccc(Oc2ccc(Cl)cc2)cc1)C(=O)NCCOP(=O)(O)OCCN (centres unmarked)", -14],
  ["CC(Oc1ccc(Oc2ccc(Cl)cc2)cc1)C(=O)NCCCOP(=O)(O)OCCN (centres unmarked)", -6],
  ["NCCOP(=O)(O)OCCNC(=O)COc1ccc(Oc2ccc(Cl)cc2)cc1", -17],
  ["NCCOP(=O)(O)OCCCNC(=O)COc1ccc(Oc2ccc(Cl)cc2)cc1", -3]
]}

----------
In this section we review reported Changes of blood pressure after drug withdrawal values for a set of compounds.
- Tested on: renal hypertensive rats
- measurementProtocol: Antihypertensive activity in rats, p.o. (Table 4)
- Assay type: in vivo, rat
- appliedConditions: 100 mg/kg/day p.o.; 6th day after withdrawal
readoutType: Changes of blood pressure after drug withdrawal (mmHg)

{"columns": ["smilesData", "systemTested", "assayResult"],
 "data": [
  ["NCCOP(=O)(O)OCCNC(=O)COc1ccc(Oc2ccc(Cl)cc2)cc1", "renal hypertensive rats", -7],
  ["NCCOP(=O)(O)OCCCNC(=O)COc1ccc(Oc2ccc(Cl)cc2)cc1", "renal hypertensive rats", -1]
]}

----------
- System: renal hypertensive rats
- measurementProtocol: Antihypertensive activity in renal hypertensive rats, i.m. (Table 3)
- Format: in vivo, rat
- appliedConditions: 30 mg/kg/day i.m.; 2nd day, 5 hours after administration

{"columns": ["molecule", "Changes of blood pressure [mmHg]"],
 "data": [
  ["CCC=CCC=CCC=CCCCCCCCC(=O)NCCOP(=O)(O)OCCN", -33],
  ["CCCCCC=CCC=CCCCCCCCC(=O)NCCCOP(=O)(O)OCCN", -20],
  ["CCCCCC=CCC=CCCCCCCCC(=O)NCCOP(=O)(O)OCCN", -9],
  ["CCC=CCC=CCC=CCCCCCCCC(=O)OCC(COP(=O)(O)OCCN)OC(=O)CCCCCCCCCCCCCCCCC (racemic) [(b), reference compound]", -25],
  ["CCC=CCC=CCC=CCCCCCCCC(=O)NCCCOP(=O)(O)OCCN", -26],
  ["CCCCCC=CCC=CCC=CCC=CCCCC(=O)OCC(COP(=O)(O)OCCN)OC(=O)CCCCCCCCCCCCCCCCC (racemic) [(a), reference compound]", -35]
]}

----------
- systemTested: High renin plasma (Canis lupus familiaris)
- Construct: High renin plasma prepared by constriction of the renal artery of a dog anesthetized with Nembutal; from tissue; host or cells: plasma of a dog with constricted renal artery
- Sequence (Q6DYE7 66-403): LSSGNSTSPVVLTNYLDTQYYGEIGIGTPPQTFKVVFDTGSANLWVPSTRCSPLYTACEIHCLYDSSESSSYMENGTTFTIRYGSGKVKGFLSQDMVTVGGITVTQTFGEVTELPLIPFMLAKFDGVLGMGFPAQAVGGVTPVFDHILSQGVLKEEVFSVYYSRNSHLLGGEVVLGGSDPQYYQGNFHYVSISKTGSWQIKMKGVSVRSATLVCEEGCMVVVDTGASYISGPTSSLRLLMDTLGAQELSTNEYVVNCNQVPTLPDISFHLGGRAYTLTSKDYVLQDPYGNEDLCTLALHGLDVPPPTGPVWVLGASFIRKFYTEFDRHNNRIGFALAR
- measurementProtocol: Renin-inhibitory activity, Method II (high renin plasma of dog, inhibition of Angiotensin I formation)
- Type: biochemical
- appliedConditions: Table 2; 37°C, 4 hours, 1.25 mg/ml; read-out: Rate of inhibiting the formation of Angiotensin I determined by Method II
In this section we review reported inhibition at 1250 µg/mL values for a set of compounds.

{"columns": ["compound", "systemTested", "inhibition at 1250 µg/mL (%)"],
 "data": [
  ["CCC=CCC=CCC=CCCCCCCCC(=O)OCC(COP(=O)(O)OCCN)OC(=O)CCCCCCCCCCCCCCCCC (racemic) [(b), reference compound]", "High renin plasma (Canis lupus familiaris)", 25],
  ["CCCCCC=CCC=CCC=CCC=CCCCC(=O)OCC(COP(=O)(O)OCCN)OC(=O)CCCCCCCCCCCCCCCCC (racemic) [(a), reference compound]", "High renin plasma (Canis lupus familiaris)", 25],
  ["CC(Oc1ccc(Oc2ccc(Cl)cc2)cc1)C(=O)NCCCOP(=O)(O)OCCN (centres unmarked)", "High renin plasma (Canis lupus familiaris)", 51],
  ["NCCOP(=O)(O)OCCCNC(=O)COc1ccc(Oc2ccc(Cl)cc2)cc1", "High renin plasma (Canis lupus familiaris)", 52],
  ["NCCOP(=O)(O)OCCNC(=O)COc1ccc(Oc2ccc(Cl)cc2)cc1", "High renin plasma (Canis lupus familiaris)", 56]
]}

----------
- Test system: renal hypertensive rats
- measurementProtocol: Antihypertensive activity in renal hypertensive rats, i.m. (Table 3)
- Type: in vivo, rat
- appliedConditions: 30 mg/kg/day i.m.; 4th day, 5 hours after administration

{"columns": ["compound", "Changes of blood pressure (mmHg)"],
 "data": [
  ["CCC=CCC=CCC=CCCCCCCCC(=O)NCCOP(=O)(O)OCCN", -37],
  ["CCCCCC=CCC=CCCCCCCCC(=O)NCCOP(=O)(O)OCCN", -38],
  ["CCCCCC=CCC=CCC=CCC=CCCCC(=O)OCC(COP(=O)(O)OCCN)OC(=O)CCCCCCCCCCCCCCCCC (racemic) [(a), reference compound]", -34],
  ["CCC=CCC=CCC=CCCCCCCCC(=O)OCC(COP(=O)(O)OCCN)OC(=O)CCCCCCCCCCCCCCCCC (racemic) [(b), reference compound]", -39],
  ["CCCCCC=CCC=CCCCCCCCC(=O)NCCCOP(=O)(O)OCCN", -37],
  ["CCC=CCC=CCC=CCCCCCCCC(=O)NCCCOP(=O)(O)OCCN", -34]
]}

----------
In this section we review reported Changes of blood pressure values for a set of compounds.
- Tested on: renal hypertensive rats
- measurementProtocol: Antihypertensive activity in rats, p.o. (Table 4)
- Type: in vivo, rat
- appliedConditions: 100 mg/kg/day p.o.; 1st day, 5 hours after administration

{"columns": ["compound", "systemTested", "Changes of blood pressure (mmHg)"],
 "data": [
  ["NCCOP(=O)(O)OCCCNC(=O)COc1ccc(Oc2ccc(Cl)cc2)cc1 [(7)]", "renal hypertensive rats", -6],
  ["CC(Oc1ccc(Oc2ccc(Cl)cc2)cc1)C(=O)NCCOP(=O)(O)OCCN (centres unmarked) [Compound (6)]", "renal hypertensive rats", -9]
]}

----------
- Test system: renal hypertensive rats
- measurementProtocol: Antihypertensive activity in rats, p.o. (Table 4)
- Format: in vivo, rat
- appliedConditions: 100 mg/kg/day p.o.; 3rd day, 5 hours after administration
- Method: An aqueous solution or suspension in peanut oil of each test compound as administered intramuscularly (i.m.) or orally (p.o.) at a dose of 30 to 100 mg/kg (body weight)/day once every morning over the period of 6 to 7 days. The blood pressure of each rat was measured daily before and 5 hours after each administration. Furthermore, the blood pressure was measured every morning after drug withdrawal over a period of 3 to 6 days. […]
In this section we review reported Changes of blood pressure values for a set of molecules.
readoutType: Changes of blood pressure (mmHg)

{"columns": ["molecule", "systemTested", "readoutType", "assayResult"],
 "data": [
  ["NCCOP(=O)(O)OCCCNC(=O)COc1ccc(Oc2ccc(Cl)cc2)cc1", "renal hypertensive rats", "Changes of blood pressure", -18],
  ["CC(Oc1ccc(Oc2ccc(Cl)cc2)cc1)C(=O)NCCCOP(=O)(O)OCCN (centres unmarked)", "renal hypertensive rats", "Changes of blood pressure", -13],
  ["NCCOP(=O)(O)OCCNC(=O)COc1ccc(Oc2ccc(Cl)cc2)cc1", "renal hypertensive rats", "Changes of blood pressure", -44],
  ["CCCCCC=CCC=CCC=CCC=CCCCC(=O)OCC(COP(=O)(O)OCCN)OC(=O)CCCCCCCCCCCCCCCCC (racemic) [(a), reference compound]", "renal hypertensive rats", "Changes of blood pressure", -2],
  ["CC(Oc1ccc(Oc2ccc(Cl)cc2)cc1)C(=O)NCCOP(=O)(O)OCCN (centres unmarked)", "renal hypertensive rats", "Changes of blood pressure", -25]
]}
